Test system: HT29 colon
Assay: NCI tumour cell line growth inhibition, 384-well format
property name: TGI (µM)
Field: numeric (µM). Do not append units.

Worked examples, 2 molecules total:
INSERT INTO results (smiles_input, property_name, output_unit, reported_measurement) VALUES
  ('C[C@@H]1Cc2c([nH]c3ccccc23)[C@@H](c2c(F)cc(NC3CN(CCCF)C3)cc2F)N1CC(F)(F)CO', 'TGI', 'µM', 3.13),
  ('CC#C/C(=N\OC[C@H]1COCCN1)c1ccc2ncnc(Nc3ccc(OCc4cccc(F)c4)c(Cl)c3)c2c1', 'TGI', 'µM', 3.04);

Query molecule follows.
Entry CN1CCN(c2cc(C(=O)Nc3cc4cc(-c5cnn(C)c5)ccc4cn3)ccn2)CC1 — recorded TGI = 0.286
